FYI, the data here is from patent US9856279B2.

# STUDY_SYSTEM: IDH1 R132H (Homo sapiens, UniProt O75874, R132H)
# Sequence (O75874 whole entry R132H): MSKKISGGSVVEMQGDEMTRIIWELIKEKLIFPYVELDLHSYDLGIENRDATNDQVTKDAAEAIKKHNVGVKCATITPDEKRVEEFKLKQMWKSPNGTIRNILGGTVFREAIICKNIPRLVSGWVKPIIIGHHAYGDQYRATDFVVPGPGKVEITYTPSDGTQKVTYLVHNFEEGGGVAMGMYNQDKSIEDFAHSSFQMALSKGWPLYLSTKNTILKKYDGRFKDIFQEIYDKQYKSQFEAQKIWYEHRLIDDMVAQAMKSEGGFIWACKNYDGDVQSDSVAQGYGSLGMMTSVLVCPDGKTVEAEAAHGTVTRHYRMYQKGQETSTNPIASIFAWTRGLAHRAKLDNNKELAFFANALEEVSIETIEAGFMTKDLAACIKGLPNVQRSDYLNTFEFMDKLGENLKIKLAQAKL
# MEASUREMENT_NOTES: Assay for IDH1 R132H inhibitors (NADPH/aKG, resazurin detection)
# Type: biochemical
# REPORTED_CONDITIONS: enzyme assay of Example 12; read-out: IDH1R132H IC50
pIC50: −log10 of the molar value.
READOUT: pIC50

Worked cases, answers included:
| COMPOUND | ENDPOINT_RESULT |
| --- | --- |
| N#Cc1cc(-c2cccc3c2CNC3=O)c(C2CC2)nc1N1CCN(C(=O)C2CC2)[C@H](C2CC2)C1 | 6.00 to 6.30 |
| COCCC(=O)N1CCN(c2nc(C3CC3)c(-c3cccc(F)c3F)c(C)c2C#N)C[C@H]1C | > 6.30 |
| CCc1ccccc1-c1cc(C#N)c(N2CCN(C(=O)CCOC)[C@H](C)C2)nc1C1CC1 | 6.00 to 6.30 |
| N#Cc1ccnc(Nc2cc(C#N)c(N3CCN(C(=O)C[C@H]4CCO4)[C@H](C4CC4)C3)nc2C2CC2)c1 | > 6.30 |
| C=Cc1cc(-c2c(C3CC3)nc(N3CCN(C(=O)CCC4CCO4)[C@H](C4CC4)C3)c(C#N)c2C)ccn1 (stereo partly shown) | > 6.30 |
| N#Cc1cc(-c2ccnc(Cl)c2F)c(C2CC2)nc1N1CCN(C(=O)C2CC2)[C@H](C2CC2)C1 | 6.00 to 6.30 |

From here, focus on the item given below.
Exercise: Provide only the value of recorded pIC50 for C=CC(=O)N1CCCC(c2cc(C#N)c(N3CCN(C(=O)C4CC4)[C@H](C)C3)nc2C2CC2)C1 (stereo partly shown)
Key: 6.00 to 6.30

----------
# STUDY_SYSTEM: IDH1 R132H (Homo sapiens, UniProt O75874, R132H)
# MEASUREMENT_NOTES: Assay for IDH1 R132H inhibitors (NADPH/aKG, resazurin detection)
# Assay type: biochemical
# REPORTED_CONDITIONS: enzyme assay of Example 12; read-out: IDH1R132H IC50
pIC50: −log10 of the molar value.
READOUT: pIC50

Exercise: Fill in reported pIC50 for this entry: `C=Cc1cc(-c2c(C3CC3)nc(N3CCN(C(=O)CC4CCC4)[C@H](C4CC4)C3)c(C#N)c2C)ccn1`
Key: > 6.30

Exercise: Determine its reported pIC50: `C=Cc1cc(-c2cc(C#N)c(N3CCN(C(=O)CCOC)[C@H](C4CC4)C3)nc2C2CC2)cnn1`
Key: > 6.30

Exercise: Return the recorded pIC50 value; entry: `C=Cc1cc(-c2cc(C#N)c(N3CCN(C(=O)CCO)[C@H](C)C3)nc2C2CC2)ncn1`
Key: > 6.30

Exercise: Complete the entry with pIC50 for `COCCC(=O)N1CCN(c2nc(C3CC3)c(-c3ccc(C#N)cc3)c(C)c2C#N)C[C@H]1C`
Key: > 6.30

----------
# STUDY_SYSTEM: IDH1 R132H (Homo sapiens, UniProt O75874, R132H)
# MEASUREMENT_NOTES: Assay for IDH1 R132H inhibitors (NADPH/aKG, resazurin detection)
# Format: biochemical
# REPORTED_CONDITIONS: Table 3; enzyme assay, 50 minutes at room temperature; read-out: IC50 (IDH1 R132H Inhibition)
pIC50: −log10 of the molar value.
READOUT: pIC50

Below are worked cases with known answers.
| MOLECULE | pIC50 |
| --- | --- |
| Cc1occc1C(=O)N1CCN(c2nc(C(C)C)c(-c3ccc(F)cc3)cc2C#N)C[C@H]1C [Compound 199] | 5.30 to 6.00 |
| COCCC(=O)N1CCN(c2nc(C3CC3)c(-c3ccc(C(F)(F)F)cc3)cc2C#N)C[C@H]1C [Compound 226] | ≥ 6.00 |

Exercise: Read the entry CC(C)c1cc(-c2cccc(F)c2)c(C#N)c(N2CCN(C(=O)c3ccoc3)[C@H](C)C2)n1 [Compound 156] and write its reported pIC50.
Key: 5.30 to 6.00

Exercise: Answer with reported pIC50 of COc1ccccc1-c1cc(C(C)C)nc(N2CCN(C(=O)c3ccco3)C(C)C2)c1C#N (stereo not shown) [Compound 147]
Key: 4.82 to 5.30
